Below, each of the binders is paired with its reported interaction score value.
# ASSAYED_SYSTEM: T1, 4H3619-AA
# T1 chain: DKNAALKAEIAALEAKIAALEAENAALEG
# PROCEDURE_SUMMARY: two-hybrid library CCmax;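 also: natural log of median RNA to DNA barcode read ratio; higher means stronger binding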
# MEASUREMENT_CONDITIONS: mean of both orientations
Lab note: record just the number, no unit beside it.

Example entries and their recorded answers appear below.
DKIAALKAEIAALEAKNAALKAKIAALEG [4H2621-AA] = 0.162
DEIAALEAKIAALKAEIAALEAENAALKG [4H324-AA] = 1.47
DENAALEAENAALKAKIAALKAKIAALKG [4H1262-AA] = 1.07

Let us move to another entry and its interaction score.
Sure, the documented interaction score for DKIAALKAKIAALKAENAALEAKNAALEG [4H2903-AA] is -0.237
